- ASSAY_SUMMARY: CCK8 cell viability (toxicity) assay in 293T cell line
- Format: cell-based
- RECORDED_CONDITIONS: human, 293T cells, 293T, 10 µmol, 24 h, CCK8, three replicate wells
PROPERTY_MEASURED: viability at 24 h, 10 µmol (%)
Could you give me the number in %? Just the number is fine.

Query: Please give the measured viability at 24 h, 10 µmol for this compound: CCOC(=O)c1[nH]c(C)c(CCC(=O)N2CCCC(C(=O)NCCN3CCCCCC3)C2)c1C (stereo not shown)
Reply: 109

###

- ASSAY_SUMMARY: Blood drug concentration in mice after single intraperitoneal administration
- Assay type: in vivo, Balb/c strain mice
- RECORDED_CONDITIONS: Balb/c, mouse, serum, ip, 2.5 mg/kg, IP 2.5 mg/kg, 4 hr, mean of 3 animals
PROPERTY_MEASURED: concentration at 4 h

Query: Please give the measured concentration at 4 h for this molecule: CCOC(=O)c1[nH]c(C)c(CCC(=O)N2CCCC(C(=O)NCCN3CCCCCC3)C2)c1C (stereo not shown)
Reply: 5.14 ng/mL
